Recorded values, source PubChem BioAssay AID1845196.

compounds and their reported viability, T/C
# Tested on: 292921-168-R tumor spheroid viability
# Assay Comment: Anticancer human tumor 292921-168-R patient-derived pancreatic carcinoma cell line growth inhibition
# Test Context: second compound 94.9 pM; first compound 0.0949 µM; hits give low values; spheroids with HUVEC and MSC
Reply with just the number (in %).

Example compounds with recorded viability, T/C:
- Compound: "Cc1sc2c(c1C)C(c1ccc(Cl)cc1)=NC(CC(=O)Nc1ccc(O)cc1)c1nnc(C)n1-2 (centres undefined) + COc1cc2c(cc1O)CCNC21CSC2c3c(OC(C)=O)c(C)c4c(c3C(COC1=O)N1C(O)C3Cc5cc(C)c(OC)c(O)c5C(C21)N3C)OCO4"
  Reported Result: 118
- Compound: "CNCc1ccc(-c2cc(-c3nc(-c4ccc(S(=O)(=O)C(C)C)cc4)cnc3N)on2)cc1 + COc1cc2c(cc1O)CCNC21CSC2c3c(OC(C)=O)c(C)c4c(c3C(COC1=O)N1C(O)C3Cc5cc(C)c(OC)c(O)c5C(C21)N3C)OCO4"
  Reported Result: 69
- Compound: "Cn1ncnc1[C@H]1c2n[nH]c(=O)c3cc(F)cc(c23)N[C@@H]1c1ccc(F)cc1 + COc1cc2c(cc1O)CCNC21CSC2c3c(OC(C)=O)c(C)c4c(c3C(COC1=O)N1C(O)C3Cc5cc(C)c(OC)c(O)c5C(C21)N3C)OCO4"
  Reported Result: 65.1

Attention now turns to another entry.
Ask: Look at this compound and give its reported viability, T/C. O=C(c1cc(Cc2n[nH]c(=O)c3ccccc23)ccc1F)N1CCN(C(=O)C2CC2)CC1 + COc1cc2c(cc1O)CCNC21CSC2c3c(OC(C)=O)c(C)c4c(c3C(COC1=O)N1C(O)C3Cc5cc(C)c(OC)c(O)c5C(C21)N3C)OCO4
Reply: 94.8

---

# Tested on: 292921-168-R tumor spheroid viability
# Assay Comment: Anticancer human tumor 292921-168-R cell line growth inhibition;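 also: spheroids exposed to compounds for 7 days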
# Test Context: second compound 100 µM; first compound 0.316 µM; hits give low values; spheroids with HUVEC and MSC
Label Fulfilled when viability, T/C < 80%; otherwise Not fulfilled.

Illustrative cases are given below, each with its answer.
- Molecule: "COc1cc(C)[nH]c(=O)c1CN1CCc2c(Cl)cc(C(OC)C3COC3)c(Cl)c2C1=O (stereo unspecified) + Cn1nnc2c(C(N)=O)ncn2c1=O"
  System Name: "292921-168-R tumor spheroid viability"
  Label Class: "Not fulfilled"
- Molecule: "CC1COCCN1c1cc(-c2ccnn2C)c2ccnc(-c3ccn[nH]3)c2n1 (stereo unspecified) + Cn1nnc2c(C(N)=O)ncn2c1=O"
  System Name: "292921-168-R tumor spheroid viability"
  Label Class: "Fulfilled"
- Molecule: "[2H]c1nc(C)nc([2H])c1-c1cc(NC[C@@H](C)c2cccc3c(C(=O)NC)ccnc23)ncn1 + Cn1nnc2c(C(N)=O)ncn2c1=O"
  System Name: "292921-168-R tumor spheroid viability"
  Label Class: "Not fulfilled"

Field: next molecule
Ask: Given Cc1cc(C)c(CNC(=O)c2cc(-c3ccc(CN4CCOCC4)cc3)cc3c2cnn3C2CCCC2)c(=O)[nH]1 + Cn1nnc2c(C(N)=O)ncn2c1=O , is recorded viability, T/C strictly lower than 80%?
Reply: Not fulfilled

---

# Tested on: 292921-168-R tumor spheroid viability
# Assay Comment: Anticancer human tumor 292921-168-R cell line growth inhibition;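 also: spheroids exposed to compounds for 7 days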
# Test Context: second compound 0.00949 µM; first compound 0.316 µM; hits give low values; spheroids with HUVEC and MSC
Label YES when viability, T/C < 70%; otherwise NO.

Illustrative cases are given below, each with its answer.
- Molecule: "Cc1cc(C)c(CNC(=O)c2cc(-c3ccc(CN4CCOCC4)cc3)cc3c2cnn3C2CCCC2)c(=O)[nH]1 + CC[C@@]1(O)C(=O)OCc2c1cc1n(c2=O)Cc2cc3c(CN(C)C)c(O)ccc3nc2-1"
  Label Class: "NO"
- Molecule: "CC(C)n1c(=O)n(C)c2cnc3cc(F)c(-c4ccc(OCCCN5CCCCC5)nc4)cc3c21 + CC[C@@]1(O)C(=O)OCc2c1cc1n(c2=O)Cc2cc3c(CN(C)C)c(O)ccc3nc2-1"
  Label Class: "YES"
- Molecule: "CC1COCCN1c1cc(-c2ccnn2C)c2ccnc(-c3ccn[nH]3)c2n1 (stereo unspecified) + CC[C@@]1(O)C(=O)OCc2c1cc1n(c2=O)Cc2cc3c(CN(C)C)c(O)ccc3nc2-1"
  Label Class: "YES"

Field: next molecule
Ask: Given [2H]c1nc(C)nc([2H])c1-c1cc(NC[C@@H](C)c2cccc3c(C(=O)NC)ccnc23)ncn1 + CC[C@@]1(O)C(=O)OCc2c1cc1n(c2=O)Cc2cc3c(CN(C)C)c(O)ccc3nc2-1 , is recorded viability, T/C strictly lower than 70%?
Reply: NO

---

compounds and their reported viability, T/C
# Tested on: 292921-168-R tumor spheroid viability
# Assay Comment: Anticancer human tumor 292921-168-R cell line growth inhibition;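 also: spheroids exposed to compounds for 7 days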
# Test Context: second compound 0.000949 µM; first compound 0.1 µM; hits give low values; spheroids with HUVEC and MSC
Reply with just the number (in %).

Example compounds with recorded viability, T/C:
- Compound: "CC1COCCN1c1cc(-c2ccnn2C)c2ccnc(-c3ccn[nH]3)c2n1 (stereo unspecified) + COc1cc2c(cc1O)CCNC21CSC2c3c(OC(C)=O)c(C)c4c(c3C(COC1=O)N1C(O)C3Cc5cc(C)c(OC)c(O)c5C(C21)N3C)OCO4"
  Reported Result: 1.36
- Compound: "COc1cc(C)[nH]c(=O)c1CN1CCc2c(Cl)cc(C(OC)C3COC3)c(Cl)c2C1=O (stereo unspecified) + COc1cc2c(cc1O)CCNC21CSC2c3c(OC(C)=O)c(C)c4c(c3C(COC1=O)N1C(O)C3Cc5cc(C)c(OC)c(O)c5C(C21)N3C)OCO4"
  Reported Result: 3.7
- Compound: "Cc1cc(C)c(CNC(=O)c2cc(-c3ccc(CN4CCOCC4)cc3)cc3c2cnn3C2CCCC2)c(=O)[nH]1 + COc1cc2c(cc1O)CCNC21CSC2c3c(OC(C)=O)c(C)c4c(c3C(COC1=O)N1C(O)C3Cc5cc(C)c(OC)c(O)c5C(C21)N3C)OCO4"
  Reported Result: 5.13
- Compound: "[2H]c1nc(C)nc([2H])c1-c1cc(NC[C@@H](C)c2cccc3c(C(=O)NC)ccnc23)ncn1 + COc1cc2c(cc1O)CCNC21CSC2c3c(OC(C)=O)c(C)c4c(c3C(COC1=O)N1C(O)C3Cc5cc(C)c(OC)c(O)c5C(C21)N3C)OCO4"
  Reported Result: 3.23
- Compound: "COc1ccc([C@@H](O)c2cc(-c3ncnc4cc(N5CCOCC5)ccc34)c(F)cc2Cl)nn1 + COc1cc2c(cc1O)CCNC21CSC2c3c(OC(C)=O)c(C)c4c(c3C(COC1=O)N1C(O)C3Cc5cc(C)c(OC)c(O)c5C(C21)N3C)OCO4"
  Reported Result: 2.48

Attention now turns to another entry.
Ask: Look at this compound and give its reported viability, T/C. CC(C)n1c(=O)n(C)c2cnc3cc(F)c(-c4ccc(OCCCN5CCCCC5)nc4)cc3c21 + COc1cc2c(cc1O)CCNC21CSC2c3c(OC(C)=O)c(C)c4c(c3C(COC1=O)N1C(O)C3Cc5cc(C)c(OC)c(O)c5C(C21)N3C)OCO4
Reply: 2.57

---

compounds and their reported viability, T/C
# Tested on: 292921-168-R tumor spheroid viability
# Assay Comment: Anticancer human tumor 292921-168-R cell line growth inhibition;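 also: spheroids exposed to compounds for 7 days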
# Test Context: second compound 30 pM; first compound 0.1 µM; hits give low values; spheroids with HUVEC and MSC
Reply with just the number (in %).

Example compounds with recorded viability, T/C:
- Compound: "CC1COCCN1c1cc(-c2ccnn2C)c2ccnc(-c3ccn[nH]3)c2n1 (stereo unspecified) + COc1cc2c(cc1O)CCNC21CSC2c3c(OC(C)=O)c(C)c4c(c3C(COC1=O)N1C(O)C3Cc5cc(C)c(OC)c(O)c5C(C21)N3C)OCO4"
  viability, T/C [%]: 10.9
- Compound: "COc1ccc([C@@H](O)c2cc(-c3ncnc4cc(N5CCOCC5)ccc34)c(F)cc2Cl)nn1 + COc1cc2c(cc1O)CCNC21CSC2c3c(OC(C)=O)c(C)c4c(c3C(COC1=O)N1C(O)C3Cc5cc(C)c(OC)c(O)c5C(C21)N3C)OCO4"
  viability, T/C [%]: 107
- Compound: "[2H]c1nc(C)nc([2H])c1-c1cc(NC[C@@H](C)c2cccc3c(C(=O)NC)ccnc23)ncn1 + COc1cc2c(cc1O)CCNC21CSC2c3c(OC(C)=O)c(C)c4c(c3C(COC1=O)N1C(O)C3Cc5cc(C)c(OC)c(O)c5C(C21)N3C)OCO4"
  viability, T/C [%]: 99.4
- Compound: "Cc1cc(C)c(CNC(=O)c2cc(-c3ccc(CN4CCOCC4)cc3)cc3c2cnn3C2CCCC2)c(=O)[nH]1 + COc1cc2c(cc1O)CCNC21CSC2c3c(OC(C)=O)c(C)c4c(c3C(COC1=O)N1C(O)C3Cc5cc(C)c(OC)c(O)c5C(C21)N3C)OCO4"
  viability, T/C [%]: 113
- Compound: "CC(C)n1c(=O)n(C)c2cnc3cc(F)c(-c4ccc(OCCCN5CCCCC5)nc4)cc3c21 + COc1cc2c(cc1O)CCNC21CSC2c3c(OC(C)=O)c(C)c4c(c3C(COC1=O)N1C(O)C3Cc5cc(C)c(OC)c(O)c5C(C21)N3C)OCO4"
  viability, T/C [%]: 64.9

Attention now turns to another entry.
Ask: Look at this compound and give its reported viability, T/C. COc1cc(C)[nH]c(=O)c1CN1CCc2c(Cl)cc(C(OC)C3COC3)c(Cl)c2C1=O (stereo unspecified) + COc1cc2c(cc1O)CCNC21CSC2c3c(OC(C)=O)c(C)c4c(c3C(COC1=O)N1C(O)C3Cc5cc(C)c(OC)c(O)c5C(C21)N3C)OCO4
Reply: 116
